Below, each entry is listed with its recorded IC50.
- SYSTEM TESTED: IDH1 R132C (Homo sapiens, UniProt O75874, R132C)
- Construct: 6xHis
- Sequence (O75874 whole entry R132C): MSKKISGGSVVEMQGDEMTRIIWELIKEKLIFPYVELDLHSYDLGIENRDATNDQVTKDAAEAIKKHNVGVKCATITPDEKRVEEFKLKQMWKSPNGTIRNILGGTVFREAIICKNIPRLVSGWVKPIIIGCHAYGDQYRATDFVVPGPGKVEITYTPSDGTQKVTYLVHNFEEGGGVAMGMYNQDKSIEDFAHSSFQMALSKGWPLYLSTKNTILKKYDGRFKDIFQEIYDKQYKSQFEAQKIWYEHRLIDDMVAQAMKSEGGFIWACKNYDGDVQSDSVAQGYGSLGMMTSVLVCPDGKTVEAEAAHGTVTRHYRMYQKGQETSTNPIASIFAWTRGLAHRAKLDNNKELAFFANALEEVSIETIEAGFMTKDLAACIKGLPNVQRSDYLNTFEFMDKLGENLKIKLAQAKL
- TEST PROTOCOL: Biochemical assay for IDH inhibition (NADPH fluorescence), mutant IDH1 R132C
- COND: 25 nM IDH1-R132C, 1 hour pre-incubation, in triplet
- Source text: The present disclosure provides a biochemical assay method for detecting the IDH inhibition and selectivity of the compounds by detecting IDH enzyme activity directly. Wild-type IDH enzymes convert NADP^+ to NADPH when catalyzing the α-KG producing reaction. […] So, the activity of wild-type and mutant IDH1/2 could be measured by monitoring NADPH level change as NADPH is fluorescent (Excitation 340 nm, Emission 460 nm). […]

Example compounds with recorded IC50:
CCN1Cc2c(ccnc2N[C@@H](C)c2cc(F)c(-c3ccnc(-c4ccn(C)c4)c3)cc2F)C1=O > 1000 nM
CCN1Cc2c(ccnc2N[C@@H](C)c2cc(F)c(-c3cc(C(F)(F)F)ncc3OCOC)cc2F)C1=O < 100 nM
CCN1Cc2c(ccnc2N[C@@H](C)c2cn(-c3ccnc(C(C)(C)C)c3)cn2)C1=O > 1000 nM

Documented IC50 of CCN1Cc2c(N[C@@H](C)c3ccc(-c4ccc(F)c(C)c4)c(F)c3)ncnc2C1=O : > 1000 nM

GET /value?item= CCN1Cc2c(ccnc2N[C@@H](C)c2cc(F)c(-c3ccnc(-c4ccccc4)c3)cc2F)C1=O &field=IC50 returns > 1000 nM

# compound CCN1Cc2c(ccnc2N[C@@H](C)c2cc(F)c(-c3ccnc(C4CCCC4)c3)cc2F)C1=O ; its IC50 = 100 to 500 nM

Lab note: measured IC50 of CCN1Cc2c(ccnc2N[C@@H](C)c2cc(F)c(-c3cc(C(C)(C)C)ccn3)cc2F)C1=O was < 100 nM

###

- SYSTEM TESTED: IDH1 R132C (Homo sapiens, UniProt O75874, R132C)
- Construct: 6xHis
- TEST PROTOCOL: Biochemical assay for IDH inhibition (NADPH fluorescence), mutant IDH1 R132C
- COND: 25 nM IDH1-R132C, 1 hour pre-incubation, in triplet
pIC50: −log10 of the molar value.
Measured pIC50 values are reported for all entries that follow.

MOLECULE	SYSTEM TESTED	pIC50
CCN1Cc2c(ccnc2N[C@@H](C)c2cc(F)c(-c3cc(OC(C)(C)C)cc(C)n3)cc2F)C1=O	IDH1 R132C (Homo sapiens, UniProt O75874, R132C)	> 7.00

// sample CCN1Cc2c(ccnc2N[C@@H](C)c2cc(F)c(-c3nc(C)cc(C(C)(C)F)c3F)cc2F)C1=O , its pIC50 was > 7.00

For CCN1Cc2c(ccnc2N[C@@H](C)c2cc(F)c(-c3ccnc(-c4cncc(Cl)c4)c3)cc2F)C1=O the molecule record lists pIC50 as 6.00 to 6.30

Recorded result, CCN1Cc2c(ccnc2N[C@@H](C)c2ccc(-c3ccnc(C(O)C4CC4)c3)c(F)c2)C1=O (stereo partly shown) , pIC50: < 6.00

The molecule listed as CCN1Cc2c(ccnc2N[C@@H](C)c2ccc(OC3CCc4ccccc43)c(F)c2)C1=O (stereo partly shown) shows pIC50 equal to < 6.00

For reference, reported pIC50 for CCN1Cc2c(ccnc2N[C@@H](C)c2ccc(N(C)c3ccccc3)c(F)c2)C1=O stands at < 6.00

Reported pIC50 of CCN1Cc2c(ccnc2N[C@@H](C)c2ccc(Oc3ccc4c(ccn4C(C)C)c3)c(F)c2)C1=O : 6.30 to 7.00

###

- SYSTEM TESTED: IDH1 R132C (Homo sapiens, UniProt O75874, R132C)
- Construct: 6xHis
- TEST PROTOCOL: Biochemical assay for IDH inhibition (NADPH fluorescence), mutant IDH1 R132C
- COND: 25 nM IDH1-R132C, 1 hour pre-incubation, in triplet
pIC50: −log10 of the molar value.
# pIC50 annotations

Please review the entries below; each comes with its answer.
Cc1ccc(Oc2ccc([C@H](C)Nc3nccc4c3CN(CCF)C4=O)cc2F)cc1 6.00 to 6.30
CCN1Cc2c(ccnc2N[C@@H](C)c2cc(F)c(Oc3ccc(C)cc3)cc2F)C1=O 6.30 to 7.00
CCN1Cc2c(ccnc2N[C@@H](C)c2ccc(OCC3CNC3)c(F)c2)C1=O < 6.00
CCN1Cc2c(ccnc2N[C@@H](C)c2cc(F)c(-c3cc(C#N)ccn3)cc2F)C1=O < 6.00
CCN1Cc2c(ccnc2N[C@@H](C)c2cc(F)c(-c3cc(C(C)(C)C)ncc3O)cc2F)C1=O > 7.00
CCN1Cc2c(ccnc2N[C@@H](C)c2ccc(Oc3ccnc(C(F)(F)F)c3)c(F)c2)C1=O < 6.00
CCN1Cc2c(ccnc2N[C@@H](C)c2ccc(-c3ccnc(C(C)(C)C)c3)cn2)C1=O < 6.00

Kindly consider the entry below.
Item: CCN1Cc2c(ccnc2N[C@@H](C)c2ccc(-c3ccnc(C(C)(C)C)c3)c(F)c2)C1=O | pIC50: > 7.00

###

- SYSTEM TESTED: IDH1 R132H (Homo sapiens, UniProt O75874, R132H)
- Construct: 6xHis
- Sequence (O75874 whole entry R132H): as the sequence (O75874 whole entry R132C) above, with C132H counted along it
- TEST PROTOCOL: Biochemical assay for IDH inhibition (NADPH fluorescence), mutant IDH1 R132H
- COND: 50 nM IDH1-R132H, 1 hour pre-incubation, in triplet
- Source text: The present disclosure provides a biochemical assay method for detecting the IDH inhibition and selectivity of the compounds by detecting IDH enzyme activity directly. Wild-type IDH enzymes convert NADP^+ to NADPH when catalyzing the α-KG producing reaction. […] So, the activity of wild-type and mutant IDH1/2 could be measured by monitoring NADPH level change as NADPH is fluorescent (Excitation 340 nm, Emission 460 nm). […]
METRIC NAME: IC50

Example results:
COMPOUND	IC50
CCN1Cc2c(ccnc2N[C@@H](C)c2cc(F)c(OC3CC(C)CC(C)(C)C3)cc2F)C1=O (stereo partly shown)	< 100 nM
CCN1Cc2c(ccnc2N[C@@H](C)c2cc(F)c(-c3cc(C(C)(C)C)ccn3)cc2F)C1=O	< 100 nM

Lab note: measured IC50 of CCN1Cc2c(ccnc2N[C@@H](C)c2cc(F)c(-c3ccnc(C(C)(C)O)c3)cc2F)C1=O was > 1000 nM

The compound listed as CCN1Cc2c(ccnc2N[C@@H](C)c2cc(F)c(-c3cc(C(C)(C)F)cc(O)n3)cc2F)C1=O shows IC50 equal to 100 to 500 nM

// field: IC50; key: CCN1Cc2c(ccnc2N[C@@H](C)c2cc(F)c(-c3cc(C(C)(C)C)c(OC)cn3)cc2F)C1=O ; value = < 100 nM

###

- SYSTEM TESTED: IDH1 R132H (Homo sapiens, UniProt O75874, R132H)
- Construct: 6xHis
- TEST PROTOCOL: Biochemical assay for IDH inhibition (NADPH fluorescence), mutant IDH1 R132H
- COND: 50 nM IDH1-R132H, 1 hour pre-incubation, in triplet
pIC50: −log10 of the molar value.
METRIC NAME: pIC50

Some compounds with recorded pIC50:
COMPOUND	METRIC NAME	REPORTED MEASUREMENT
CCN1Cc2c(ccnc2N[C@@H](C)c2ccc(OC3CCC(F)(F)C3)c(F)c2)C1=O (stereo partly drawn) [Compound 27]	pIC50	< 6.00
CCN1Cc2c(ccnc2N[C@@H](C)c2cc(F)c(-c3ccnc(C4CC4)c3)cc2F)C1=O [Compound 90]	pIC50	6.30 to 7.00
CCN1Cc2c(ccnc2N[C@@H](C)c2cc(F)c(-c3cc(C(C)(C)F)cc(F)n3)cc2F)C1=O [Compound 119]	pIC50	> 7.00
CCN1Cc2c(ccnc2N[C@@H](C)c2ccc(-c3ccnc(C(C)(C)C(N)=O)c3)c(F)c2)C1=O [Compound 69]	pIC50	< 6.00

The reported value for CCN1Cc2c(ccnc2N[C@@H](C)c2cc(F)c(-c3cc(C(F)(F)F)ncc3O)cc2F)C1=O [Compound 144] in terms of pIC50 is < 6.00

The compound identified as CCN1Cc2c(ccnc2N[C@@H](C)c2cc(F)c(-c3cc(C(C)(C)F)c(C(F)(F)F)cn3)cc2F)C1=O [Compound 148] registered its pIC50 at > 7.00

What the record says about CCN1Cc2c(ccnc2N[C@@H](C)c2ccc(OC3CCc4ccccc43)c(F)c2)C1=O (stereo partly drawn) [Compound 6] : pIC50 is 6.00 to 6.30

Sure, the documented pIC50 for CCN1Cc2c(ccnc2N[C@@H](C)c2cc(F)c(-c3cc(C(F)(F)F)cc(Cl)n3)cc2F)C1=O [Compound 121] is > 7.00

###

Some compounds, each annotated with its measured IC50.
- SYSTEM TESTED: IDH1 R132H (Homo sapiens, UniProt O75874, R132H)
- Construct: 6xHis
- TEST PROTOCOL: Biochemical assay for IDH inhibition (NADPH fluorescence), mutant IDH1 R132H
- COND: 50 nM IDH1-R132H, 1 hour pre-incubation, in triplet

Use these answered entries as a reference point.
COMPOUND	REPORTED MEASUREMENT
CCN1Cc2c(ccnc2N[C@@H](C)c2cc(F)c(-c3ccnc(C(F)(F)F)c3)cc2F)C1=O	500 to 1000 nM
CCN1Cc2c(ccnc2N[C@@H](C)c2cc(F)c(-c3cc(C4(F)CC4)cc(C)n3)cc2F)C1=O	< 100 nM
CCN1Cc2c(ccnc2N[C@@H](C)c2ccc(-c3ccnc(C(O)C4CC4)c3)c(F)c2)C1=O (stereo partly shown)	> 1000 nM
CCN1Cc2c(ccnc2N[C@@H](C)c2cc(F)c(-c3ccnc(C4CCCC4)c3)cc2F)C1=O	< 100 nM
CCN1Cc2c(N[C@@H](C)c3ccc(-c4ccc(F)c(C)c4)c(F)c3)ncnc2C1=O	> 1000 nM

// sample CCN1Cc2c(ccnc2N[C@@H](C)c2cc(F)c(-c3ccnc(-c4ccn(C)c4)c3)cc2F)C1=O , its IC50 was > 1000 nM

// IC50 value for CCN1Cc2c(ccnc2N[C@@H](C)c2cn(-c3ccnc(C(C)(C)C)c3)cn2)C1=O : > 1000 nM
